# assayed.system: human insulin receptor (HIR) (human, UniProt P06213)
# assay.notes: competition
pKd: −log10 of the molar value. No end group written: not given here.
# pKd listing for each entry below
quantity.measured: pKd

# binder, quantity.measured, limit.operator, test.value
measured = [
    ("RGTRSDPFYHKLSELLQGH [S368]", "pKd", "<", 4.70),
    ("DWLQRNANFYDWFVAELX (listing feature) [S294]", "pKd", "=", 6.89),
    ("SLEEEWAQIEEVWGRPSESFYDWFERQLG [S570]", "pKd", "=", 9.14),
    ("S456 (not fully specified; listing feature) chain 1: GSLDESFYDWFERQLGKK chain 2: XKEWLDQEWAWVQCEVYGRGCPSEE", "pKd", "=", 8.62),
    ("DWLQRNANFYDWFVAELG [S236]", "pKd", "=", 7.00),
    ("SLEEEWAQVKCEVYGRGCPSGSLDESFYDWFERQLG [S540]", "pKd", "=", 10.89),
    ("LAQEWAWVQCEVYGRGCPSESFYDWFERQL [S495]", "pKd", "=", 8.59),
    ("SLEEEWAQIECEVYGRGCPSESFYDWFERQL (not fully specified (N-terminus); ends and bridges not checked) [S557]", "pKd", "=", 10.70),
    ("S378 (listing feature) chain 1: GSLDESFYDWFERQLGKKKX chain 2: GSLDESFYDWFERQLGKKKX", "pKd", "=", 7.19),
    ("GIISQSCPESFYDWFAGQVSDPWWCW [S326 (G33)]", "pKd", "=", 6.23),
    ("FHENFYDWFVRQVSKKXXSDGFYNAIELLS (not fully specified; listing feature) [S273]", "pKd", "=", 7.82),
    ("SLEEEWAQIECEVWGRGCPSGSLDESFYDWFERQL [S560]", "pKd", "=", 10.85),
    ("SLEEEWAQVECEVYGRGCPSESFYDWFERQL [S530]", "pKd", "=", 11.10),
    ("SGSLDESFYDWFERQLGKK [S372]", "pKd", "=", 6.70),
    ("SLEEEWAQIECEVWGRGCSESFYDWFERQL [S559]", "pKd", "=", 10.68),
    ("GSLDESFYDWFERQLGGGSGGSWLDEEWAQVQCEVYGRGCPS [S543]", "pKd", "=", 10.72),
    ("LDQEWAWVQSEVYGRGSPSESFYDWFERQL [S509]", "pKd", "=", 8.24),
    ("S442 (peptide) chain 1: ESFYDWFERQLGGGGK chain 2: AWVQCEVYGRGCPS", "pKd", "=", 6.80),
    ("FHENFYDWAVRQVSKK [S223]", "pKd", "<", 5.70),
    ("S437 (peptide) chain 1: ESFYDWFERQLGGGGK chain 2: LDQEWAWVQCEVYGRGCPS", "pKd", "=", 9.16),
    ("SLEEEWAQVECEVYGRGCPSGGSGGSGLLDESFYHWFDRQLR [S510]", "pKd", "=", 10.21),
    ("WFYDWFWE [S315]", "pKd", "=", 7.17),
    ("S255 (listing feature) chain 1: SDGFYNAIELLSGGGX chain 2: SDGFYNAIELLSGGGX", "pKd", "=", 7.80),
    ("RWPNFYGYFESLLTHFS [S257]", "pKd", "=", 4.85),
    ("LDQEWAWVQCEAYGRGCPSESFYDWFERQL [S503]", "pKd", "=", 8.68),
    ("GSLDESFYDWFERQLGXK (listing feature) [S550]", "pKd", "=", 7.40),
]
